Sourced from the supplement of paper PMC10949913

- Tested on: NCI-H295R
- procedure_details: area under concentration-response curve (viability) (AUC (a.u.)); higher = less active
- details: 48 h
experimental_endpoint: area under concentration-response curve
Give bare numbers.

Examples from the recorded data:
>  <compound>
O=C(Nc1cc(Oc2cc(F)c(NC(=O)C3(C(=O)Nc4ccc(F)cc4)CC3)cc2F)ccn1)C1CC1

>  <area under concentration-response curve>
482

$$$$
>  <compound>
CC(C)CC(N(C)C)C1(c2ccc(Cl)cc2)CCC1 (stereo not drawn)

>  <area under concentration-response curve>
349

$$$$
>  <compound>
CCc1ccc(OCc2ccccc2C(=O)Nc2ccc3nc(C)cc(N)c3c2)cc1

>  <area under concentration-response curve>
482

$$$$
>  <compound>
Cc1cc(O)cc2c1[C@]1(C)CC[C@H]3C(C)(C)CCC[C@]3(C)[C@H]1C2

>  <area under concentration-response curve>
89.9

$$$$
>  <compound>
CCN([C@H]1CC[C@@H](CC1)N(C)CCOC)C2=C(C)C(=CC(=C2)C#CCN3CCOCC3)C(=O)NC\C4=C(C)\C=C(\C)NC4=O

>  <area under concentration-response curve>
552

$$$$

I need area under concentration-response curve for every entry listed below, if you could help.
1. C[N]1N=CC=C1C/2=C(\C)N(C(=O)C(=C2)/C(=O)NCC3=NC=C(C=C3)[S+](C)([O-])=O)C4=CC=CC(=C4)C(F)(F)F
2. C[C@]12CC[C@@H]3c4ccc(O)cc4CC[C@H]3[C@@H]1[C@@H](O)[C@@H](O)[C@@H]2O
3. CC[C@H](NC1=C2[NH]C=NC2=NC=N1)/C3=C(/C(=O)C4=CC=CC=C4O3)C5=CC=CC(=C5)F

1: 277; 2: 520; 3: 488

###

Can you tell me area under concentration-response curve for the items I'm about to list?
- Tested on: CU-ACC1
- procedure_details: area under concentration-response curve (viability) (AUC (a.u.)); higher = less active
- details: 48 h
Give bare numbers.

Examples from the recorded data:
>  <smiles_data>
NC(=O)c1cnccn1

>  <area under concentration-response curve>
346

$$$$
>  <smiles_data>
CN[C@H]1CCC2=CC(=C(OC)C(=C2C/3=C/C=C(OC)\C(=O)/C=C13)OC)OC

>  <area under concentration-response curve>
478

$$$$
>  <smiles_data>
CN[C@@H]1C[C@H]2O[C@@](C)([C@@H]1OC)n1c3ccccc3c3c4c(c5c6ccccc6n2c5c31)C(=O)NC4

>  <area under concentration-response curve>
385

$$$$
>  <smiles_data>
COc1cccc(Nc2c(C(N)=O)cnc3c(C)cc([S+](=O)([O-])c4cccc(C(=O)N(C)C)c4)cc23)c1

>  <area under concentration-response curve>
466

$$$$

I need area under concentration-response curve for every entry listed below, if you could help.
1. CC1(C)SCCN([S+](=O)([O-])c2ccc(OCC#CCO)cc2)[C@H]1C(=O)NO
2. OC1=CC2=C(C(=C1)O)C(=O)\C(=C(/O2)C3=CC(=C(O)C(=C3)O)O)O

446
553

I need area under concentration-response curve for every entry listed below, if you could help.
1. Cc1ccc([N+](=O)[O-])cc1[S+](=O)([O-])N(C)/N=C/c1cnc2ccc(Br)cn12
2. Cc1cnc(Nc2ccc(CN3CCOCC3)cc2)nc1Nc1cccc([S+](=O)([O-])NC(C)(C)C)c1

1. 226
2. 445

###

- Test system: CU-ACC1
- procedure_details: AC50 viability; higher = less potent
- details: 48 h
experimental_endpoint: log10(AC50 viability) (log10 of the value in µM)
The common logarithm of AC50 viability in µM is what is listed.

>  <compound>
Cc1ccc(N[S+](=O)([O-])c2cccc(C#N)c2)c2[nH]cc(C#N)c12

>  <val>
-0.08

$$$$
>  <compound>
CN(C)C/C=C/C(=O)Nc1cc2c(Nc3ccc(F)c(Cl)c3)ncnc2cc1O[C@H]1CCOC1

>  <val>
0.67

$$$$
>  <compound>
CC(C)n1cnc2c(NCCCCCCNC(=O)OC(C)(C)C)nc(NCCO)nc21

>  <val>
1.22

$$$$

I need log10(AC50 viability) for every entry listed below, if you could help.
1. O=C(NOCC(O)CO)c1cc(Br)c(F)c(F)c1Nc1ccc(I)cc1F (stereo not given)
2. Nc1n[n+]([O-])c2ccccc2[n+]1[O-]

1: 0.07; 2: 1.47

###

Can you tell me area under concentration-response curve for the items I'm about to list?
- Test system: CU-ACC1
- procedure_details: area under concentration-response curve (viability) (AUC (a.u.)); higher = less active
- details: 48 h
Answers are plain numbers.

Examples from the recorded data:
>  <compound>
CN(C(=O)c1ccc(F)cc1C(F)(F)F)C1CCN(c2nnc(-c3ccnn3C)c3ccccc23)CC1

>  <area under concentration-response curve>
495

$$$$
>  <compound>
N[S+](=O)([O-])NCCNc1nonc1/C(=N/O)Nc1ccc(F)c(Br)c1

>  <area under concentration-response curve>
524

$$$$
>  <compound>
CC(C)CC(=O)Nc1n[nH]c2c1CN(C(=O)C1CCN(C)CC1)C2(C)C

>  <area under concentration-response curve>
514

$$$$
>  <compound>
CC(=O)O/N=C1\C(=O)N(Cc2cc(Cl)ccc2Cl)c2ccc(Cl)cc21

>  <area under concentration-response curve>
448

$$$$
>  <compound>
CNC(=O)Cn1cc(-c2ccc3c(c2)C(F)CC32NC(=O)N(CC(=O)N(Cc3ccc(F)cc3)[C@@H](C)C(F)(F)F)C2=O)cn1 (some centres undefined)

>  <area under concentration-response curve>
517

$$$$

I need area under concentration-response curve for every entry listed below, if you could help.
1. COc1ccc([S+](=O)([O-])N2CCc3cccc(-c4ccncc4)c32)cc1
2. COC1=CC=C(C=C1)C/2=C(OC3O[C@@H](C)[C@H](O)[C@@H](O)[C@H]3O)/C(=O)C4=C(O2)C(=C(OC5O[C@H](CO)[C@@H](O)[C@H](O)[C@H]5O)C=C4O)CC=C(C)C (some centres undefined)
3. CN1CCN(CCOc2cc(OC3CCOCC3)c3c(Nc4c(Cl)ccc5c4OCO5)ncnc3c2)CC1
4. CN(C)CCN(C)CCc1ccc(Cl)c(Cl)c1
5. COc1ccc(-n2c(C)c([N+](=O)[O-])c3ccc(O)cc32)cc1
6. Cn1c(Nc2ccc(C(F)(F)F)cc2)nc2cc(Oc3ccnc(-c4nc(C(F)(F)F)c[nH]4)c3)ccc21
7. COc1ccc(N(C)c2nc(C)nc3ccccc23)cc1
8. O=C1Nc2ccc(I)cc2/C1=C/c1cc(Br)c(O)c(Br)c1

[576, 510, 547, 574, 519, 369, 491, 500]

###

Can you tell me log10 of AC50 viability for the items I'm about to list?
- Test system: CU-ACC1
- procedure_details: AC50 viability; higher = less potent
- details: 48 h
The common logarithm of AC50 viability in µM is what is listed.

>  <compound>
Cc1cnc(NC(=O)Nc2cc(Br)c(C)cc2OC[C@@H]2CNCCO2)cn1

>  <system_tested>
CU-ACC1

>  <log10 of AC50 viability>
0.82

$$$$
>  <compound>
Cc1c(NC(=O)c2cc(C(N)=O)nc3cc(F)ccc23)c(C(F)(F)F)nn1Cc1ccc(C#N)cc1

>  <system_tested>
CU-ACC1

>  <log10 of AC50 viability>
0.22

$$$$
>  <compound>
COc1cc2c(NC3CCN(C(C)C)CC3)nc(C3CCCCC3)nc2cc1OCCCN1CCCC1

>  <system_tested>
CU-ACC1

>  <log10 of AC50 viability>
1.07

$$$$
>  <compound>
COc1ncc(Nc2ncc(C(C)N3CCN([S+](C)(=O)[O-])CC3)cc2-c2nc(C)nc(N)n2)cc1F (configuration not stated)

>  <system_tested>
CU-ACC1

>  <log10 of AC50 viability>
-2.58

$$$$
>  <compound>
CC1=C(C)C\2=C(S1)[N]3C(=NN=C3[C@H](CC(=O)NC4=CC=C(OCCOCCOCCOCCNC5=CC=CC6=C5C(=O)N(C7CCC(=O)NC7=O)C6=O)C=C4)\N=C2C8=CC=C(Cl)C=C8)C (some centres not stated)

>  <system_tested>
CU-ACC1

>  <log10 of AC50 viability>
-0.38

$$$$

I need log10 of AC50 viability for every entry listed below, if you could help.
1. CN(C)CCCN1c2ccccc2CCc2ccc(Cl)cc21
2. Cc1ccc2nc(NCCN)c3ncc(C)n3c2c1
3. CC(=O)O/N=C1\C(=O)N(Cc2cc(Cl)ccc2Cl)c2ccc(Cl)cc21

1.27
1.17
0.32

###

- System: CU-ACC1
- procedure_details: area under concentration-response curve (viability) (AUC (a.u.)); higher = less active
- details: 48 h
Can you tell me area under concentration-response curve for the items I'm about to list?
Give bare numbers.

Examples from the recorded data:
>  <molecule>
CC(C)OC1=C(F)C=C(C=C1)C2=N[N]([C@@H](C)C/3=C(C4=CC(=CC=C4)F)/C(=O)C5=CC(=CC=C5O3)F)C6=C2C(=NC=N6)N

>  <area under concentration-response curve>
516

$$$$
>  <molecule>
CN1CCN(C)C(=O)C1C2=CC=C(N/C3=N/C(=C\N(C)C3=O)C4=C(C)C(=CC=C4)NC(=O)C5=CC6=C(CCCC6)S5)C=C2 (stereo not drawn)

>  <area under concentration-response curve>
528

$$$$
>  <molecule>
N=C(N)NN.N=C(N)NN.O=S(=O)(O)O

>  <area under concentration-response curve>
503

$$$$

I need area under concentration-response curve for every entry listed below, if you could help.
1. N=C(N)c1ccc2[nH]c(-c3cc(CC(=O)N[C@@H](CC(=O)O)C(=O)O)cc(-c4cc([S+](N)(=O)[O-])ccc4O)c3O)nc2c1
2. CCOc1cc(CC(=O)N[C@@H](CC(C)C)c2ccccc2N2CCCCC2)ccc1C(=O)O
3. C[C@H](Nc1nc(N[C@H](C)C(F)(F)F)nc(-c2cccc(Cl)n2)n1)C(F)(F)F
4. C[S+](=O)([O-])c1cc(F)cc2c3c(n(Cc4ccc(Cl)cc4)c12)[C@@H](CC(=O)O)CC3
5. Cn1c(=O)c2c(ncn2CC(O)CO)n(C)c1=O (stereo not drawn)

595
221
547
536
437
